src = ChEMBL document CHEMBL3390842

target: G-protein coupled receptor 35 (Homo sapiens, UniProt Q9HC97); type: cell-based, HT-29
Sequence (Q9HC97 whole entry): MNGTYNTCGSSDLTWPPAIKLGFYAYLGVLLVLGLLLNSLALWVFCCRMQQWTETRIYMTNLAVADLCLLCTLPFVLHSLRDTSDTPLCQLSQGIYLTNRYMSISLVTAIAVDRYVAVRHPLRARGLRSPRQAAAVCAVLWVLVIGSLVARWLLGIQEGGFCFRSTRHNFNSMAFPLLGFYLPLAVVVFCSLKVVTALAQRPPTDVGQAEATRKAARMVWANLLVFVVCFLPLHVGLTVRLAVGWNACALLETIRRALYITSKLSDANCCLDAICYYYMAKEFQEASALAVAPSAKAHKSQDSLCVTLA
Below is a list of entries, each paired with its recorded EC50 value.
// note: answer is a bare numeric in µM

The cases that follow already have their EC50 on record.
Entry `O=C(c1cc(O)c(O)c([N+](=O)[O-])c1)c1ccccc1F` has what EC50? 8.66

Now give it for `CCN(CC)C(=O)/C(C#N)=C/c1cc(O)c(O)c([N+](=O)[O-])c1` too. 5.66

Let us move to another entry and its EC50.
Entry `CC(=O)C(=Cc1cc(O)c(O)c([N+](=O)[O-])c1)C(C)=O` has what EC50? 0.82
